protocol-summary: Cytotoxicity on normal cells, CCK-8 assay
Assay type: cell-based
test-conditions: African green monkey
Give measured CC50 at 48 h for each item. Keep answers brief.
Give bare numbers, in µM.

These recorded examples may help you get a feel for the data.
compound | CC50 at 48 h [µM]
C[C@H]1[C@@H](O)O[C@@H]2O[C@@]3(C)CC[C@H]4[C@H](C)CC[C@@H]1[C@@]24OO3 [Dihydroartemisinin] | 5.88
CC(C)[C@@H](C)/C=C/[C@@H](C)[C@H]1CCC2C3=CC=C4CC(OC5OC6OC7(C)CCC8[C@H](C)CCC([C@H]5C)[C@@]68OO7)CC[C@]4(C)C3CC[C@@]21C (stereo partly drawn) [JZ-6] | 100

Could you now consider this next compound?
Look up CC50 at 48 h for this compound: CC(=O)O[C@H]1C(=O)[C@@]2(C)[C@H]([C@H](OC(=O)c3ccccc3)[C@]3(O)C[C@H](OC(=O)[C@H](O)[C@@H](NC(=O)c4ccccc4)c4ccccc4)C(C)=C1C3(C)C)[C@]1(OC(C)=O)CO[C@@H]1C[C@@H]2O [Taxol, paclitaxel, reference compound]
1.5
